# TARGET: UniProt:P42680
# Sequence (P42680 whole entry): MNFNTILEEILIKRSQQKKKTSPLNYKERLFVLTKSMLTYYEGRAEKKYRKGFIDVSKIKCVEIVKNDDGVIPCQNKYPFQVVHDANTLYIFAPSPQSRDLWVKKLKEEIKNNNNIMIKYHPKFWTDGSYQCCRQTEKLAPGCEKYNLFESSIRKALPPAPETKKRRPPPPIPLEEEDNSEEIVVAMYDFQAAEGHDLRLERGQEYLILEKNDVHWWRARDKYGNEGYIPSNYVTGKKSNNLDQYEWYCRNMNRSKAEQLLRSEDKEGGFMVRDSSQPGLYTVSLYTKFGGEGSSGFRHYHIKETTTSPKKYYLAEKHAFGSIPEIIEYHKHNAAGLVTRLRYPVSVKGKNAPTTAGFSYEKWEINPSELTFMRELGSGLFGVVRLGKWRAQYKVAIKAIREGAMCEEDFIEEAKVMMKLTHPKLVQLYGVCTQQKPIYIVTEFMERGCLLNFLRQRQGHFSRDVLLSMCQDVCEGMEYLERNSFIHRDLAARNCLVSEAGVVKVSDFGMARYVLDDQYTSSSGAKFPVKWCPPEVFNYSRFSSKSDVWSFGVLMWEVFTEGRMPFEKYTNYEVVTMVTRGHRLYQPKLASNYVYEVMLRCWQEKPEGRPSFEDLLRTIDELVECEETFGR
pIC50: −log10 of the molar value.
READOUT KIND: pIC50

query: For UniProt:P42680, give the measured pIC50 of the entry `CCCS(=O)(=O)Nc1ccc(F)c(C(=O)c2c[nH]c3ncncc23)c1F`
result: ≥ 5.00
